From: BindingDB's records for doi:10.1021/acs.jmedchem.7b00882

- assayRemarks: Inhibition of human serum C2-mediated lysis of antibody-sensitized sheep red blood cells after 30 mins by UV-Vis spectrophotometric method
Peptide text beside a SMILES is read from it.
readout: IC50
Show the value, then the unit it is measured in.

Task: Which IC50 reading was recorded for the compound CC(=O)N[C@@H](CCCNC(=N)N)C(=O)N[C@@H](CC(C)C)C(=O)N[C@@H](CC(C)C)C(=O)N[C@@H](CC(C)C)C(=O)N[C@@H](C)C(=O)N[C@H](C=O)CCCNC(=N)N (Ac-RLLLAR-aldehyde) ?
Result: 28 µM

###

// IC50 lookup, one value per entry
- assayRemarks: Inhibition of factor D in […]-activated human serum assessed as decrease in human erythrocyte lysis
Quick reminder: number only, in nM, skip the unit.

[
  {
    "chemicalString": "CC(=O)Oc1ccc(-c2ccc(OC(C)=O)c(C(=O)O)c2)cc1C(=O)O",
    "IC50 / nM": 100
  }
]

Task: Can you share its IC50? I mean this molecule: "CC(=O)Oc1ccc(Cc2ccc(OC(C)=O)c(C(=O)O)c2)cc1C(=O)O"
Result: 100
